Recorded values, source PubChem BioAssay AID2060617.

- Test system: 485368-065-R4-J2-PDC spheroids with HUVEC/MSC, viability;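 further: spheroids exposed to compounds for seven days; 100% = DMSO vehicle control wells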
- Assay Text: Anticancer human tumor 485368-065-R4-J2-PDC patient-derived pancreatic carcinoma cell line growth inhibition [CLK]
- Condition Summary: second compound 0.316 µM; first compound 0.03 µM; hits give low values
Mark each entry yes (1) if its viability, T/C sits below 70%, and no (0) for all others.

Q: Problem: For the compound NC(=O)C(=Cn1cnc(-c2cc(C(F)(F)F)cc(C(F)(F)F)c2)n1)c1cncnc1 + CN1CCN(c2cc(C(=O)Nc3cc4cc(-c5cnn(C)c5)ccc4cn3)ccn2)CC1 , is viability, T/C under 70%?
Result: yes (1)

Q: Then what about the compound NC(=O)C(=Cn1cnc(-c2cc(C(F)(F)F)cc(C(F)(F)F)c2)n1)c1cncnc1 + CNC(=O)c1ccc(Nc2nc(OC3CCCC3)c3c(-c4ccc5nc(C)oc5c4)c[nH]c3n2)c(OC)c1 ?
Result: no (0)

Q: C=CC(=O)Nc1cc(Nc2nccc(-c3cn(C)c4ccccc34)n2)c(OC)cc1N(C)CCN(C)C + CNC(=O)c1ccc(Nc2nc(OC3CCCC3)c3c(-c4ccc5nc(C)oc5c4)c[nH]c3n2)c(OC)c1 ?
Result: no (0)

Q: Please give the result for C=CC(=O)Nc1cc(Nc2nccc(-c3cn(C)c4ccccc34)n2)c(OC)cc1N(C)CCN(C)C + CN1CCN(c2cc(C(=O)Nc3cc4cc(-c5cnn(C)c5)ccc4cn3)ccn2)CC1 too.
Result: no (0)

Q: Would you kindly repeat that for CC(C)CC(NC(=O)C(Cc1ccccc1)NC(=O)c1cnccn1)B(O)O (stereo unspecified) + CNC(=O)c1ccc(Nc2nc(OC3CCCC3)c3c(-c4ccc5nc(C)oc5c4)c[nH]c3n2)c(OC)c1 ?
Result: yes (1)

Q: And CC(C)CC(NC(=O)C(Cc1ccccc1)NC(=O)c1cnccn1)B(O)O (stereo unspecified) + CN1CCN(c2cc(C(=O)Nc3cc4cc(-c5cnn(C)c5)ccc4cn3)ccn2)CC1 ?
Result: yes (1)
